The reported numbers originate from PubChem BioAssay AID1628.

# Protocol summary: decrease of insulin promoter-GFP reporter – imaging, high-content screening, mouse beta cells (AID 1628)
# Study conditions: MIN6 insulin promoter GFP reporter, at 5 µM
The whole screen tested about 190,000 compounds, of which about 930 (0.49%) were called active.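 Rule for the calls: active = z-score of insulin promoter reporter brightness in nuclei below -3 at 5 µM, with at least 500 cells counted; inconclusive = wells with under 500 cells, flagged as toxic or sparse; inactive = the rest.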 The list shows a part of the results. Potency and affinity values are given separately.
Can you answer with just one of these options? TRUE (active), FALSE (inactive)

Task item: Just curious, what result did "CCOC(=O)c1c(-c2ccc(C)cc2)csc1NC(=O)/C(C#N)=C/c1ccc(O)c(OC)c1" get here?
Reply: FALSE

Task item: Just curious, what result did "NC(=NCc1ccc2c(c1)OCO2)NC(=O)c1ccccc1" get here?
Reply: TRUE

Task item: # lookup: test call for "CCN1CC=C2C(C#N)=C(N)C(C#N)(C#N)[C@H](c3cccc(OC)c3OC)[C@H]2C1"
Reply: FALSE

###

# Protocol summary: decrease of insulin promoter-GFP reporter – imaging, high-content screening, mouse beta cells (AID 1628)
# Study conditions: MIN6 insulin promoter GFP reporter, at 5 µM, hits give low values
Hit rate of the full screen: of about 190,000 compounds, about 930 (0.49%) were called active. The list shows a part of the results. Potency and affinity values are given separately.
Value type: z-score
Reply: number alone, nothing else.

Data point: "COc1ccc(C(=O)/C=C/c2ccccc2)c(O)c1" ; z-score = -0.73

Quick note, z-score for "CCOC(=O)c1nn(-c2ccc(Cl)cc2Cl)c(=N)c(C#N)c1C" landed at 10.8

Briefly, z-score measured for "Cc1ccc(NC(=O)CCl)c(C)c1" : 3.51

The recorded z-score for entry "Cc1sc2ncnc(Sc3ccccc3C(=O)Nc3ccc(Br)cc3)c2c1C" equals -5.49

Continuing:
Lookup result for "Cc1ccc(C)c(NC(=S)N2CCCCCC2)c1" ; measured z-score: 0.89

###

// reported z-score for each item listed
# Protocol summary: decrease of insulin promoter-GFP reporter – imaging, high-content screening, mouse beta cells (AID 1628)
# Study conditions: MIN6 insulin promoter GFP reporter, at 5 µM, hits give low values
Among all 190,000 compounds or so, about 930 (0.49%) were called active. The list shows a part of the results. Potency and affinity values are given separately.
Hey, just send me the number, nothing else.

Note to self: z-score recorded for "Cc1ccc(-c2ccc(/C=C(\C#N)C(=O)Nc3cc(C)nn3-c3ccccc3)o2)cc1" was 3.08

Reported z-score ( "COc1cc(S(=O)(=O)N2CCOCC2)ccc1NC(=O)COC(=O)C12CC3CC(CC(C3)C1)C2" ) = 3.88

With those in mind, consider the next compound.
Note to self: z-score recorded for "O=C(CNC(=O)c1cccc(F)c1)N/N=C/c1cc(Br)ccc1OC(=O)/C=C/c1ccco1" was -8.62

###

# Protocol summary: decrease of insulin promoter-GFP reporter – imaging, high-content screening, mouse beta cells (AID 1628)
# Study conditions: MIN6 insulin promoter GFP reporter, at 5 µM, hits give low values
Among all 190,000 compounds or so, about 930 (0.49%) were called active. The list shows a part of the results. Entries with a potency or affinity are not part of this list.
Documented z-score across a set of molecules

Solved cases (3 shown):
// field: z-score; key: "CCCNc1nc2c(c(=O)n(C)c(=O)n2C)n1CCc1ccccc1" ; value = -5.56 (active)

// field: z-score; key: "Cn1c(N)cc(=O)n(Cc2ccccc2)c1=O" ; value = -5.18 (active)

Recorded result, Cc1csc(SC(C)C(=O)NCC(=O)Nc2ccc(F)c(F)c2F)n1 (centres undefined) , z-score: 4.91 (inactive)

Switching to the query record.
// recorded z-score for "CCOC(=O)c1sc(NCCNc2nc(C)c(C(=O)OCC)s2)nc1C" : -0.64 (inactive)

###

# Protocol summary: decrease of insulin promoter-GFP reporter – imaging, high-content screening, mouse beta cells (AID 1628)
# Study conditions: MIN6 insulin promoter GFP reporter, at 5 µM
In all, about 190,000 compounds went through this assay and about 930 (0.49%) were called active.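 Rule for the calls: active = z-score of insulin promoter reporter brightness in nuclei below -3 at 5 µM, with at least 500 cells counted; inconclusive = wells with under 500 cells, flagged as toxic or sparse; inactive = the rest.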 This is one part of the list. Measured potencies and affinities stand elsewhere.
Entry note: the call must match one of active, inactive

See these solved cases before continuing.
Task item: Could you check what this test reported for "Cc1cc(C)cc(N(CC(=O)Nc2cccc(C)n2)S(=O)(=O)c2c(C)noc2C)c1" ?
Reply: inactive

Task item: Recorded test call requested for "Cc1ccc2nc(NCCC(=O)O)nc(-c3ccccc3)c2c1"
Reply: inactive

Task item: Per the records of this test, what outcome belongs to "COc1cc(N2CCCC2)c(OC)cc1/C=C1/NC(=S)NC1=O" ?
Reply: inactive

Task item: Test call for this compound, please: "COc1ccc(-c2[nH]ncc2CN(C)Cc2ccccn2)c(OC)c1"
Reply: active

Task item: Could you kindly confirm the outcome this assay logged for "O=C(Cn1nnc(-c2ccc(S(=O)(=O)N3CCCC3)cc2)n1)Nc1ccccc1-n1cccc1" ?
Reply: active

Continuing:
Task item: Could you please tell me the result logged for COc1cc(C)nc(N2CCCC(C(=O)Nc3cccc(Cl)c3C)C2)n1 (stereo not given) in this assay?
Reply: inactive

Task item: In this assay, the call recorded for "Nc1c(C(=O)NCCc2ccccc2)sc2nc(N3CCOCC3)c3c(c12)CCCC3" was what?
Reply: active

Task item: Could you kindly confirm the outcome this assay logged for "N#C/C(=C\c1ccc(N2CCOCC2)o1)C(=O)NCCc1ccccc1" ?
Reply: inactive

Task item: Could you kindly confirm the outcome this assay logged for "COc1ccccc1NC(=O)c1c(NC(=O)c2ccco2)sc2c1CCC2" ?
Reply: active

Task item: Write down the call the test reported for this compound. Item: "CN(/C(=N\S(=O)(=O)c1ccccc1)c1ccccc1)c1ccc(O)cc1"
Reply: inactive

###

Let's look at some compounds and their measured z-score.
# Protocol summary: decrease of insulin promoter-GFP reporter – imaging, high-content screening, mouse beta cells (AID 1628)
# Study conditions: MIN6 insulin promoter GFP reporter, at 5 µM, hits give low values
In all, about 190,000 compounds went through this assay and about 930 (0.49%) were called active. Some of the results follow. Potency and affinity values are given separately.
Please reply with the number alone, leaving off any unit.

Solved entries (count: 2):
GET /value?item= CCOC(=O)C1=C(C)OC(N)=C(C#N)C1c1cc(SCC)oc1C (configuration not stated) &field=z-score returns 0.96

Item: CCS(=O)(=O)N1Cc2ccccc2CC1C(=O)OCC(=O)Nc1ccc(C)cc1 (configuration not stated) | z-score: 5.05

Others:
Sure, the documented z-score for "COc1cc(/C=C(\C#N)c2nc3ccccc3o2)ccc1O" is 4.56

###

# Protocol summary: decrease of insulin promoter-GFP reporter – imaging, high-content screening, mouse beta cells (AID 1628)
# Study conditions: MIN6 insulin promoter GFP reporter, at 5 µM
In all, about 190,000 compounds went through this assay and about 930 (0.49%) were called active.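 How the source made its calls: active means z-score of insulin promoter reporter brightness in nuclei below -3 at 5 µM, with at least 500 cells counted; inconclusive means wells with under 500 cells, flagged as toxic or sparse; inactive means the rest.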 The list shows a part of the results. Results with a measured potency or affinity are listed apart.
Your response should consist of one outcome taken from t (active), f (inactive)

Reference set (2 entries):
Task item: Please share the test call associated with "COc1cc2c3nnc(-c4ccccc4)c-3cn(Cc3ccccc3F)c2cc1OC" .
Reply: f

Task item: Can you look up the reported call for CCOc1ccc(-n2c(SCC(=O)NC(C)CC)nc3n[nH]c(C)c3c2=N)cc1 (stereo not drawn) for me?
Reply: f

Moving on to another molecule below.
Task item: Please share the test call associated with "CCN(C(=S)Nc1cccnc1)c1cccc2ccccc12" .
Reply: t

###

# Protocol summary: decrease of insulin promoter-GFP reporter – imaging, high-content screening, mouse beta cells (AID 1628)
# Study conditions: MIN6 insulin promoter GFP reporter, at 5 µM, hits give low values
Screen size: about 190,000 compounds; about 930 (0.49%) were called active. The list shows a part of the results. Results with a measured potency or affinity are listed apart.
Value type: z-score
Lab note: jot down the number only; don't add units.

These solved cases illustrate the format of a correct answer.
The recorded z-score for entry "CCOC(=O)Cc1csc(NC(=O)c2sc3nc4c(C)cc(C)cc4cc3c2N)n1" equals 4.73

Just so you know, measured z-score for "O=C(c1cc([N+](=O)[O-])ccc1N1CCCC1)N1CCCC1" came out at 3.06

z-score reading for "Nc1ccc2c(c1)Cc1cc([N+](=O)[O-])ccc1-2" : 7.76

Record summary for "c1ccc(-c2csc(-n3cnnn3)n2)cc1" : reported z-score = 3.13

Briefly, z-score measured for "Cc1cccc2c(C(=O)N3CCN(C(=O)c4ccco4)CC3)cc(-c3cccc(Br)c3)nc12" : -4.53

Further cases:
// "Cc1cc2c(ncn2C)c(NS(=O)(=O)c2ccccc2Cl)c1C" : z-score value = -4.59

The recorded z-score for COc1ccc(C2CC(=O)N(CCCN(C)CCc3ccc(OC)c(OC)c3)C2)cc1 (configuration not stated) is 1.63

###

# Protocol summary: decrease of insulin promoter-GFP reporter – imaging, high-content screening, mouse beta cells (AID 1628)
# Study conditions: MIN6 insulin promoter GFP reporter, at 5 µM, hits give low values
In all, about 190,000 compounds went through this assay and about 930 (0.49%) were called active. The list shows a part of the results. Entries with a potency or affinity are not part of this list.
Listing: z-score of selected compounds
Lab note: record the figure alone, no unit after it.

Please review the following examples before continuing.
According to the records, this compound "C/C(=N\NC(=O)c1cccc(N/N=C(\C)c2cc(O)ccc2O)c1)c1cc(O)ccc1O" displays z-score of -4.19

The measured z-score associated with "CC(=O)c1cccc(NC(=O)c2c(F)c(F)c(F)c(F)c2F)c1" reads 0.06

Query compound follows.
Entry CCOC(=O)C1=C(C)NC(=O)CC1c1cc2c(cc1[N+](=O)[O-])OCO2 (stereo not drawn) — recorded z-score = 3.01
